Target: BCAT2 (Homo sapiens, UniProt O15382)
Test: BCAT2 in vitro enzyme inhibition assay (resazurin/diaphorase-coupled fluorescence)
Assay type: biochemical
Settings: average where tested multiple times
pIC50: −log10 of the molar value.
Recorded Endpoint: pIC50

>>> result_value("O=C(NC1CCCCC(n2c(-c3ccccc3F)nc3cnc(-c4nc[nH]n4)cc32)C1O)c1ncc(Cl)s1 (stereo not shown) [Example 402]")
"≥ 7.00"
>>> result_value("O=C(N[C@H]1CCC[C@@H](n2c(CN3CCCCC3)nc3cnc(-n4nccn4)cc32)C1)c1ncc(C(F)F)s1 [Example 95]")
"< 6.00"
>>> result_value("O=C(N[C@H]1CCC[C@@H](n2c(Oc3cc[nH]n3)nc3cnc(-c4nc[nH]n4)cc32)C1)c1ncc(Cl)s1 [Example 191]")
"< 6.00"
>>> result_value("CC(=O)N1CC(NC(=O)c2ncc(C(F)F)s2)CC(n2c(-c3ncccc3F)nc3cnc(-n4nccn4)cc32)C1 (stereo not shown) [Example 119]")
"≥ 7.00"

###

Listing of entries alongside the reported IC50.
Molecular target: BCAT2 (Homo sapiens)
Sequence (O15382 28-392): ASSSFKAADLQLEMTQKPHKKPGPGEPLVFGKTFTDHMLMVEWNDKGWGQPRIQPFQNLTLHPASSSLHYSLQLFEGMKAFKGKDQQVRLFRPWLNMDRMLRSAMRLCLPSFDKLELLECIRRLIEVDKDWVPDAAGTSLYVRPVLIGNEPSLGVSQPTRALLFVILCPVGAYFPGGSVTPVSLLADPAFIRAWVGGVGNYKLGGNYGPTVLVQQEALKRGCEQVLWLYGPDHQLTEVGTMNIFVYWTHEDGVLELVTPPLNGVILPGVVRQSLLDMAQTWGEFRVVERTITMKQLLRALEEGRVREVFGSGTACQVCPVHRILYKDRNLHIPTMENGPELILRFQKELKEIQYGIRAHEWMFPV
Assay: BCAT2 in vitro cell inhibition using engineered A549 cells (KMV cell assay, 13C6-KMV by LC-MS/MS)
Type: cell-based
Design: The result was an engineered A549 cell line that expressed endogenous BCAT2; endogenous in cells; host or cells: A549 cells with MUT and BCAT1 knocked out by CRISPR/CAS9
Conditions: average where tested multiple times
Recorded Endpoint: IC50

>>> result_value("O=C(NC1CC(O)CC(n2c(-c3ccccc3F)nc3cnc(-c4nnc[nH]4)cc32)C1)c1ncc(Cl)s1 (stereo not shown)")
"≤ 100 nM"
>>> result_value("CC(C)Cc1nc2cnc(-n3cncn3)cc2n1[C@@H]1CCC[C@H](NC(=O)c2ncc(Cl)s2)C1")
"> 1000 nM"
>>> result_value("Cn1ccc(-c2nc3cnc(-n4nccn4)cc3n2[C@@H]2CCC[C@H](NC(=O)c3ncc(C(F)F)s3)C2)n1")
"> 1000 nM"
>>> result_value("O=C(N[C@H]1CCC[C@@H](n2c(-c3ccccn3)nc3cnc(-n4nccn4)cc32)C1)c1ccc(Br)s1")
"≤ 100 nM"
>>> result_value("O=C(N[C@H]1CCC[C@@H](n2c(C3CCCOC3)nc3cnc(-c4nc[nH]n4)cc32)C1)c1ncc(Cl)s1 (single isomer, unassigned) [Example 103]")
"100 to 500 nM"
>>> result_value("CC(C)Cc1nc2cnc(-c3nc[nH]n3)cc2n1[C@@H]1C[C@@H](O)C[C@H](NC(=O)c2ncc(Cl)s2)C1")
"≤ 100 nM"
>>> result_value("CC(C)Cc1nc2cnc(-n3ccc(N)n3)cc2n1[C@@H]1CCC[C@H](NC(=O)c2ncc(Cl)s2)C1")
"500 to 1000 nM"
